Overview of reported apparent KD of MS2 coat protein across a group of sequences:
tested on: MS2 coat protein; test: apparent KD of MS2 coat protein; designed switch direction (-1 OFF switch, 1 ON switch): -1; higher = weaker reporter binding; conditions: input ligand: microRNA oligo, concentration not stated

| biopolymer sequence | quantity unit | apparent KD of MS2 coat protein |
| --- | --- | --- |
| GGUCAUAGGUAAGGAUAUGAAGAUCUGGUGGUGACAUGAGGAUCACCCAUGUGAAAACGAUGAGAUCAGAAGGUACAAUAUGAA [AK ExNG2-4.1] (Eterna round: R96, puzzle: Exclusion NG 2) | nM | 49.1 |
| ACAAACAACAUAGGAUAUCUGCGGGUGUCAGUGCUCAUGGAUCUCCACAUGAGGAUCACCCAUGUAGAGAAGGAUGAACGCUUA [Retionzaan] (Eterna round: R96, puzzle: Exclusion NG 2) | nM | 8.9 |
| GUAACAACUAGAGGAUAUCAGCACGUGUUGUGCUGAGAAGGCUAGAGUUACAUGAGGAUCACCCAUGUCUAGAGAUCAUUAAUU [ENG1/13-A4] (Eterna round: R96, puzzle: Exclusion NG 1) | nM | 29.5 |
| GCCGGCUAUGUAGGAUAUGGGCCUGAUACGGGUCUAGAAGGACAUGAGGAUCACCCAUGUAUCGUGCGCUGGUGGCUUGCCGGU [-30, -30 kcal and 19% A] (Eterna round: R96, puzzle: Exclusion NG 1) | nM | 119 |
| CACCGUUAUAUAGGAUAUGUUACAUGAGGAUCACCCAUGUAAUAAAUGAGAAUUUCGAAUGUAAUACAGAAGGAUAGAAUCGGC [Ostracism 72 - Jieux - Exclusion NG 2] (Eterna round: R96, puzzle: Exclusion NG 2) | nM | 18.1 |
| UUCCUCGUUGUGAGGAUAUCGUCCUAUUUUUGUUACGAGAAGGCACAUGAGGAUCACCCAUGUUACUUGAUGUU [JR_BMOE4_Sub071] (Eterna round: R96, puzzle: Brourd's mod of Exclusion 4) | nM | 21.1 |
| CCUAGUUGGUAAGGAUAUCCUACACUGUUCUGACCCGGGCAUGCUACAUGAGGAUCACCCAUGUGGGAGAAGGUGCGUCAACGC [Design 14] (Eterna round: R96, puzzle: Exclusion NG 2) | nM | 19.3 |
| GUAAUGCUGCGAGGAUAUACAUGAGGAUCACCCAUGUGGAUGUCUGAGGCAAAGCCUCAGACGAUGUAGAAGGCGCAGUAAAAU [Mat - Exclusion NG 2 - Mod of JL - D54] (Eterna round: R96, puzzle: Exclusion NG 2) | nM | 17.6 |
| CUAGCGAAUGUAGGAUAUCGGACUGUUUCAGUCUGAGAAGGACAUGAGGAUCACCCAUGUAUAGCUACGUGAGUAGCUCGCUAG [JL ENG1 3.91] (Eterna round: R96, puzzle: Exclusion NG 1) | nM | 13 |
